meta.source: the supplement of paper PMC10266784

B1: library; numbered along this chain (parent)
chain: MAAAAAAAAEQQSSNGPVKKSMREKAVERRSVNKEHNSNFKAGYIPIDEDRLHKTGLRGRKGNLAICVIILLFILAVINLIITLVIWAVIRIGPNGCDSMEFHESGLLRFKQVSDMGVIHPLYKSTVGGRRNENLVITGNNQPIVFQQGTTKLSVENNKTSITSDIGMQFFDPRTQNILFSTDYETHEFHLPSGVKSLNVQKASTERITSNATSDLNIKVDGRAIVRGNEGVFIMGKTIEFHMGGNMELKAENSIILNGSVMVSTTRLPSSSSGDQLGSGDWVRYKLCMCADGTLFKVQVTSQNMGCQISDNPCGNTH

Variants of: B1
Assay: SGCB cell-surface expression functional score (HA stain, bin4 vs bin1, normalised to synonymous) (log10 ratio); higher = more cell-surface SGCB (functional)
Use SGCB cell-surface expression functional score (log10) to assign classes; range list: lower bin: < -0.5; middle bin: ≥ -0.5 and < 0.03; upper bin: ≥ 0.03

{"variant.designation": "P46M", "group": "middle bin"}
{"variant.designation": "S197L", "group": "upper bin"}
{"variant.designation": "I137D", "group": "lower bin"}
{"variant.designation": "T83Q", "group": "upper bin"}
{"variant.designation": "D183P", "group": "lower bin"}
{"variant.designation": "D281C", "group": "lower bin"}
{"variant.designation": "N177Q", "group": "upper bin"}
{"variant.designation": "H187A", "group": "lower bin"}
{"variant.designation": "V226S", "group": "middle bin"}
{"variant.designation": "G231L", "group": "middle bin"}
{"variant.designation": "Q169V", "group": "middle bin"}
{"variant.designation": "D172T", "group": "upper bin"}
{"variant.designation": "R91Y", "group": "lower bin"}
{"variant.designation": "P121L", "group": "upper bin"}
{"variant.designation": "F189Q", "group": "lower bin"}
{"variant.designation": "M22E", "group": "upper bin"}
{"variant.designation": "F170Q", "group": "middle bin"}
{"variant.designation": "D183T", "group": "lower bin"}
{"variant.designation": "F40P", "group": "middle bin"}
{"variant.designation": "S271A", "group": "middle bin"}
{"variant.designation": "E28Q", "group": "middle bin"}
{"variant.designation": "A7C", "group": "upper bin"}
{"variant.designation": "G278V", "group": "upper bin"}
{"variant.designation": "T151I", "group": "lower bin"}
{"variant.designation": "V300Q", "group": "lower bin"}
{"variant.designation": "S264Y", "group": "upper bin"}
{"variant.designation": "R174C", "group": "middle bin"}
